subject of test: human TRPV1 receptor (hTRPV1) (Homo sapiens (Human), UniProt Q8NER1)
Sequence (Q8NER1 whole entry): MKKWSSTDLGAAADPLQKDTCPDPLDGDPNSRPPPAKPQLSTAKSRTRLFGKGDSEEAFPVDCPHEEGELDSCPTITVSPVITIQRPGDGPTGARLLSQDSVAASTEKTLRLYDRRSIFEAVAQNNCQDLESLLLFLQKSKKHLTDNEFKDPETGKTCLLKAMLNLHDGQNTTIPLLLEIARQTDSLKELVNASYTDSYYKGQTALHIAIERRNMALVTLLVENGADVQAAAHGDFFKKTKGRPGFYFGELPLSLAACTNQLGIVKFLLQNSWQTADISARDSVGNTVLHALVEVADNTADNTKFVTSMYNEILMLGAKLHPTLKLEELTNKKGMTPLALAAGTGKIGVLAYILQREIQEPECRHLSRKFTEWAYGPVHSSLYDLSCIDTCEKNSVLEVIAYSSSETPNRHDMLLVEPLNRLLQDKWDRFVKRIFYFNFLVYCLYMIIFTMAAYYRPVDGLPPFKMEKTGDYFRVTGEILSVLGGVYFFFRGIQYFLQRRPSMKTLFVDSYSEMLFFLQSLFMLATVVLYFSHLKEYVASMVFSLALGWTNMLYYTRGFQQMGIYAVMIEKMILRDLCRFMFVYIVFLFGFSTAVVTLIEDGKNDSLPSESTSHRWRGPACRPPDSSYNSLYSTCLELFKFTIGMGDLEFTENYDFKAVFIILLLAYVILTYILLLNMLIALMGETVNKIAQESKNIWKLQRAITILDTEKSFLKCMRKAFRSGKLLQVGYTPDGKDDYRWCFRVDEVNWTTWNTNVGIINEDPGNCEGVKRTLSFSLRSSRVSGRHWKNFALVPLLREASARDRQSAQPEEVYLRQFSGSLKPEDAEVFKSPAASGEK
measurement protocol: Capsaicin activation assay (FLIPR intracellular Ca2+)
Assay type: cell-based
recorded conditions: inhibition of capsaicin-induced intracellular Ca2+ increase; compounds added 3 minutes prior to capsaicin; read-out: hTRPV1 cap. IC50
assay endpoint: pIC50
Please keep in mind that pIC50 is minus log10 of the molar concentration; only the number is needed.

Provide pIC50, recorded with human TRPV1 receptor (hTRPV1) (Homo sapiens (Human), UniProt Q8NER1), of CC1(C)C[C@@H](NC(=O)NCc2ccc(NS(C)(=O)=O)c(F)c2)c2ccc(C(F)(F)F)cc2O1 [Example 9]
6.96

Provide pIC50, recorded with human TRPV1 receptor (hTRPV1) (Homo sapiens (Human), UniProt Q8NER1), of C[C@]1(CF)C[C@@H](NC(=O)NCc2ccc(NS(C)(=O)=O)c(F)c2)c2ccc(C(F)(F)F)cc2O1 [Example 38]
6.46

Provide pIC50, recorded with human TRPV1 receptor (hTRPV1) (Homo sapiens (Human), UniProt Q8NER1), of CS(=O)(=O)Nc1ccc(CNC(=O)N[C@@H]2CC(CF)(CF)Oc3c2ccc(Cl)c3F)cc1F [Example 20]
6.10

Provide pIC50, recorded with human TRPV1 receptor (hTRPV1) (Homo sapiens (Human), UniProt Q8NER1), of CS(=O)(=O)Nc1ccc(CNC(=O)N[C@@H]2CCc3cc(Cl)ccc32)cc1F [Example 3]
5.74

Sourced from patent US8796328B2
